target-entity: biotinylated human IL-17A / AF647-labeled human IL-17RA (Homo sapiens)
Sequence (Q16552 24-155): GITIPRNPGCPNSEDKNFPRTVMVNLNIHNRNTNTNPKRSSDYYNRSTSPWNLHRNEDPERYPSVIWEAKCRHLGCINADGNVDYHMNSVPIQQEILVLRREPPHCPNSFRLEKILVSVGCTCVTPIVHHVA
assay-protocol: Human IL-17A×IL-17RA TR-FRET assay
Type: binding
condition-info: TR-FRET, 5 nM IL-17A, 30 nM IL-17RA; read-out: IL17AA FRET/ IL17Rawt IC50
Quick reference for pIC50 among some compounds
Worth noting: pIC50 values are minus log10 of concentrations stated in mol/L.

Known results for compounds:
compound | pIC50
Cc1cc[n+]([O-])c(C)c1-c1ccc(NC(=O)C(NC(=O)c2ccc3n2CCNC3)C2CCC(C)CC2)cc1 (stereo not shown) | 5.64
Cc1cc[n+]([O-])c(C)c1-c1ccc(NC(=O)[C@@H](NC(=O)c2ccc3n2CCN(C)C3)C(C)c2ccccc2Cl)cc1 (stereo partly shown) | 6.27
Cc1cc(-c2ccc(NC(=O)[C@@H](NC(=O)c3conc3C)C3CCC(F)(F)CC3)cc2)c(C)[n+]([O-])c1 | 6.41

Item under review: Cc1c(-c2ccc(NC(=O)C(NC(=O)c3ccnn3C)C3CCCC(F)C3)cc2)c(Cl)cc[n+]1[O-] (stereo not shown) . Reported pIC50?
7.21

Again, but for Cc1c(-c2ccc(NC(=O)[C@@H](NC(=O)c3ccc4n3CCNC4)C3CCC(F)(F)CC3)cc2)c(Cl)cc[n+]1[O-]
6.74

Then Cc1c(-c2ccc(NC(=O)[C@@H](NC(=O)c3ccc4n3CCN(C)C4)C3CCC(F)(F)CC3)cc2F)c(Cl)cc[n+]1[O-] ?
6.70

###

Attribute: pIC50
target-entity: biotinylated human IL-17A / AF647-labeled human IL-17RA (Homo sapiens)
assay-protocol: Human IL-17A×IL-17RA TR-FRET assay
Assay type: binding
condition-info: TR-FRET, biotinylated human IL-17A 5 nM, AF647-labeled human IL-17RA 30 nM; read-out: IL17AA FRET/ IL17Rawt IC50
Scale: negative log10 of molar concentration, which is what pIC50 denotes.

Field: example entries. Status: answers known.
compound | target-entity | pIC50
Cc1cc[n+]([O-])c(C)c1-c1ccc(NC(=O)[C@@H](NC(=O)c2ccnn2C2CC2)C2CCCCC2)cc1 | biotinylated human IL-17A / AF647-labeled human IL-17RA (Homo sapiens) | 6.89
Cc1cc[n+]([O-])c(C)c1-c1ccc(NC(=O)[C@H](Cc2ccccc2)NC(=O)c2conc2C)cc1 | biotinylated human IL-17A / AF647-labeled human IL-17RA (Homo sapiens) | 5.82
Cc1c(-c2ccc(NC(=O)[C@@H](NC(=O)c3ccnn3C)C3CCCCC3)cc2)cc(CO)c[n+]1[O-] | biotinylated human IL-17A / AF647-labeled human IL-17RA (Homo sapiens) | 5.86

Quick check: pIC50 of CCc1nocc1C(=O)NC(C(=O)Nc1ccc(-c2c(C)cc[n+]([O-])c2C)cc1)C1CCC(C(F)(F)F)CC1 (stereo not shown) ?
7.39

###

Listed below: pIC50 values for each entry.
target-entity: recombinant human IL-17AA (Homo sapiens, UniProt Q16552)
assay-protocol: IL-6 release from NHDF cells, IL-17AA plus TNF-α stimulation
Type: cell-based
condition-info: NHDF cells, IL-17AA 30 pM plus TNF-α 6 pM, 24 hours, IL-6 by ELISA; read-out: IL17AA + TNF IC50 IL-6
In simple prose, pIC50 is minus the logarithm base ten of a concentration in moles per litre.

compound | value-observed
Cc1cc[n+]([O-])c(C)c1-c1ccc(NC(=O)[C@@H](NC(=O)c2conc2C)C2CCCCCC2)nc1 [Example 44] | 7.74
Cc1nocc1C(=O)NC(C(=O)Nc1ccc(-c2c(Cl)cc[n+]([O-])c2C)cc1)C1CCC(C(F)(F)F)CC1 (stereo not shown) [Example 19] | 7.70
Cc1nocc1C(=O)NC(C(=O)Nc1ccc(-c2c(Cl)cc[n+]([O-])c2C)cc1)C1CC2CC2C1 (stereo not shown) [Example 71] | 7.46
Cc1cc[n+]([O-])c(C)c1-c1ccc(NC(=O)[C@@H](NC(=O)c2ccnn2C)[C@H]2CCCc3ccccc32)cc1 [Example 1] | 8.40
Cc1c(-c2cc(F)c(NC(=O)[C@@H](NC(=O)c3ccnn3C)C3CCCCC3)cc2F)c(Cl)cc[n+]1[O-] [Example 63] | 7.24
CC(=O)N1CCn2c(ccc2C(=O)N[C@H](C(=O)Nc2ccc(-c3c(C)c[n+]([O-])cc3C)cc2)C2CCCCCC2)C1 [Example 118] | 7.70

Continue with the compound presented below.
Field: pIC50 (recombinant human IL-17AA (Homo sapiens, UniProt Q16552)). Entry: Cc1c(-c2ccc(NC(=O)C(NC(=O)c3ccnn3C)C3CCC(C(F)(F)F)CC3)cc2)c(Cl)cc[n+]1[O-] (stereo not shown) [Example 18]
7.55
